Sourced from patent US12371454B2

Target: Kras and SOS1 (biotin-tagged human Kras loaded with GDP, His-tagged human SOS1) (Homo sapiens, UniProt P01116, G12D)
Construct: made in house; host or cells: E. coli (stated for Kras only)
Sequence (P01116 1-188 isoform P01116-2 G12D): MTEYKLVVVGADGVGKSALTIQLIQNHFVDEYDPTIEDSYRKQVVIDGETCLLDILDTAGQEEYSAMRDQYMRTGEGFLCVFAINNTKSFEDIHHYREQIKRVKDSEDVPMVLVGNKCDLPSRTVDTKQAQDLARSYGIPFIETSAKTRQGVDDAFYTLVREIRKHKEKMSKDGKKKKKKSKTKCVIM
Assay: Protein-protein interaction inhibition between Kras and SOS1 (KrasGl2D-SOS PPI) using AlphaScreen
Assay type: binding
Settings: AlphaScreen; biotin-tagged human Kras loaded with GDP, His-tagged human SOS1; read-out: KRAS G12D-SOS PPI IC50
Protocol: Protein-Protein Interaction Inhibition Between Kras and SOS1 (KrasGl2D-SOS PPI) Using AlphaScreen Protein-protein interaction inhibition (PPI) between Kras and SOS1 was measured by energy transfer from nickel-conjugated donor beads to streptavidin-conjugated acceptor beads using biotin-tagged human Kras expressed in E. coli and loaded with GDP after purification and His-tagged human SOS1 enzyme. […]
pIC50: −log10 of the molar value. Starred links: 1 amine or outer side, 2 acyl side, 3 side chain; linkers in the order of their positions; H or OH if unused. Positions of bridges follow the written chain, without caps; N, C: chain ends. Non-standard residues stand in square brackets, D forms with d. Residues, ends and D or L forms follow the SMILES beside them. *: point of attachment. hPhe(3,5-F2-4-CF3) = N[C@@H](CCc1cc(F)c(C(F)(F)F)c(F)c1)C(=O)O; hPhe(3-Cl-4-CF3) = N[C@@H](CCc1ccc(C(F)(F)F)c(Cl)c1)C(=O)O; NMePhe(4-Me) = CN[C@@H](Cc1ccc(C)cc1)C(=O)O; NMedβ3hAla = C[C@H](CC(=O)[*:2])N(C)[*:1]; NMeCha = CN[C@@H](CC1CCCCC1)C(=O)O; NMeI = CC[C@H](C)[C@H](NC)C(=O)O; dNMeF = CN[C@H](Cc1ccccc1)C(=O)O; NMeD = CN[C@@H](CC(=O)O)C(=O)O; NMeL = CN[C@@H](CC(C)C)C(=O)O; d(β3hA) = C[C@@H](N)CC(=O)O; NMeS = CN[C@@H](CO)C(=O)O; NMeA = CN[C@@H](C)C(=O)O; NMeAib = CNC(C)(C)C(=O)O; Piperidide = C1CCN(*)CC1; Ac5c = NC1(C(=O)O)CCCC1; Aze = O=C(O)[C@@H]1CCN1; CH2CMe2OH = CC(C)(O)C*; Aib = CC(C)(N)C(=O)O; Isopentyl = CC(C)CC*; NEtG = CCNCC(=O)O; Sar = CNCC(=O)O
endpoint: pIC50

>>> endpoint_value("CC[C@H](C)[C@@H]1NC(=O)[C@H](CC(C)C)N(C)C(=O)C[C@@H](C)NC(=O)[C@H](CC(C)C)N(C)C(=O)C(C)(C)NC(=O)[C@H](COCC(C)(C)O)N(C)C(=O)[C@H](CCc2ccc(C(F)(F)F)c(Cl)c2)NC(=O)CN(C)C(=O)[C@H](COCCC(C)C)N(C)C(=O)CN(CC)C(=O)CN(C)C1=O [Compound 1484] (cyclo([Aib][NMeL][d(β3hA)][NMeL]I[Sar][NEtG][NMeS](Isopentyl)[Sar][hPhe(3-Cl-4-CF3)][NMeS](CH2CMe2OH)))")
6.72
>>> endpoint_value("CC[C@H](C)[C@@H]1NC(=O)[C@H](C)N(C)C(=O)C[C@@H](C)N(C)C(=O)[C@H](CC(C)C)NC(=O)C(C)(C)N(C)C(=O)[C@H](CC(C)C)NC(=O)[C@H](CCc2ccc(C(F)(F)F)c(Cl)c2)NC(=O)CN(C)C(=O)[C@H](CC2CCCCC2)N(C)C(=O)[C@@H]2CCN2C(=O)CN(C)C1=O [Compound 1387] (cyclo([Aze][NMeCha][Sar][hPhe(3-Cl-4-CF3)]L[NMeAib]L[NMedβ3hAla][NMeA]I[Sar]))")
7.85
>>> endpoint_value("CC[C@H](C)[C@@H]1NC(=O)[C@H](CC(C)C)N(C)C(=O)C[C@@H](C(=O)N2CCCCC2)N(C)C(=O)[C@H]([C@@H](C)CC)N(C)C(=O)C2(CCCC2)NC(=O)[C@@H](Cc2ccccc2)N(C)C(=O)[C@H](CCc2cc(F)c(C(F)(F)F)c(F)c2)NC(=O)CN(C)C(=O)[C@H](Cc2ccc(C)cc2)N(C)C(=O)[C@@H]2CCN2C(=O)[C@H](C)N(C)C1=O [Compound 1895] ([NMeL]I[NMeA][Aze][NMePhe(4-Me)][Sar][hPhe(3,5-F2-4-CF3)][dNMeF][Ac5c][NMeI][NMeD]-Piperidide; lactam N-11)")
6.44
